system: NCI-H292 lung cancer cells; test: FDA drug screening, complete media vs cholesterol-free media without statin (TABLE 1); type: cell-based, human; details: NCI-H292 cells, FDA drug library screen, complete media
Where a name gives a salt, the structure may show the parent alone.
Some molecules, each annotated with its measured Complete.
endpoint: Complete

CCN(CC)CC#CCOC(=O)C(O)(c1ccccc1)C1CCCCC1 (stereo not shown) : 0.9761
Cc1c(C(C)C)c(=O)n(-c2ccccc2)n1C : 1.005
N#Cc1cc(NC(=O)C(=O)O)c(Cl)c(NC(=O)C(=O)O)c1.NC(CO)(CO)CO.NC(CO)(CO)CO [Lodoxamide (tromethamine)] : 0.7586
CCN[C@H]1C[C@H](C)S(=O)(=O)c2sc(S(N)(=O)=O)cc21 [Dorzolamide (hydrochloride)] : 0.9378
CCN1CCN(C(=O)N[C@@H](C(=O)N[C@@H]2C(=O)N3[C@@H]2SC(C)(C)[C@@H]3C(=O)[O-])c2ccccc2)C(=O)C1=O.[Na+] [Piperacillin (sodium)] : 1.138
CNS(=O)(=O)CCc1ccc2[nH]cc(C3CCN(C)CC3)c2c1 [Naratriptan (hydrochloride)] : 0.9077
CS(=O)(=O)c1cccc(C[C@H](NC(=O)c2c(Cl)cc3c(c2Cl)CCN(C(=O)c2ccc4ccoc4c2)C3)C(=O)O)c1 : 0.9552
COc1ccc2cc(CCC(C)=O)ccc2c1 : 0.8533
O=C(O)C[C@H](O)C[C@H](O)/C=C/c1c(C2CC2)nc2ccccc2c1-c1ccc(F)cc1 : 0.3693
CC(=O)OCC(=O)[C@@]12OC3(CCCC3)O[C@@H]1C[C@H]1[C@@H]3CCC4=CC(=O)C=C[C@]4(C)[C@@]3(F)[C@@H](O)C[C@@]12C [Amcinonide] : 0.9188
O=C(Cn1cnnn1)N[C@@H]1C(=O)N2C(C(=O)O)=C(CSc3nncs3)CS[C@H]12 [Ceftezole (sodium)] : 0.9806
COC(=O)C1=C(C)NC(C)=C(C(=O)OC(C)(C)CN(C)CCC(c2ccccc2)c2ccccc2)C1c1cccc([N+](=O)[O-])c1 (stereo not shown) [Lercanidipine (hydrochloride)] : 0.7061
CC(=O)Oc1cccc2c1C(=O)c1c(OC(C)=O)cc(C(=O)O)cc1C2=O : 0.9444
COC(=O)N[C@H](C(=O)N1CC2(CC2)C[C@H]1c1nc(-c2ccc3c(c2)C(F)(F)c2cc(-c4ccc5[nH]c([C@@H]6[C@H]7CC[C@H](C7)N6C(=O)[C@@H](NC(=O)OC)C(C)C)nc5c4)ccc2-3)c[nH]1)C(C)C : 0.4332
C[C@]12CC[C@@H]3c4ccc(O)cc4CC[C@H]3[C@@H]1CC[C@H]2O : 0.8561
CCCCC1=NC2(CCCC2)C(=O)N1Cc1ccc(-c2ccccc2-c2nnn[nH]2)cc1 : 0.7887
COc1cc(C)c(/C=C/C(C)=C/C=C/C(C)=C/C(=O)O)c(C)c1C : 0.7285
CN(C)c1ccc2nc3ccc(=[N+](C)C)cc-3sc2c1 [Methylene blue (trihydrate)] : 0.2574
CC(OC(=O)NCC1(CC(=O)O)CCCCC1)OC(=O)C(C)C (stereo not shown) : 0.8727
O=C(O)CCc1nc(-c2ccccc2)c(-c2ccccc2)o1 : 1.011
N=C(N)c1ccc(OCCCCCOc2ccc(C(=N)N)cc2)cc1.O=S(=O)(O)CCO.O=S(=O)(O)CCO [Pentamidine (isethionate)] : 0.4688
COc1ccc(-c2cc(=S)ss2)cc1 : 1.382
CC[N+](C)(C)c1cccc(O)c1.[Cl-] [Edrophonium (chloride)] : 0.9821
CC(C)(Oc1ccc(C2CC2(Cl)Cl)cc1)C(=O)O (stereo not shown) [Ciprofibrate] : 0.9746
COc1cc([C@@H]2c3cc4c(cc3[C@@H](O[C@@H]3O[C@@H]5CO[C@@H](c6cccs6)O[C@H]5[C@H](O)[C@H]3O)[C@H]3COC(=O)[C@H]23)OCO4)cc(OC)c1O [Teniposide] : 0.09739
O=C(O)CSc1nnc(Br)n1-c1ccc(C2CC2)c2ccccc12 : 0.9716
CSCC[C@H](N)C(=O)O : 0.7822
CC1(C)O[C@@H]2C[C@H]3[C@@H]4CCC5=CC(=O)CC[C@]5(C)[C@@]4(F)[C@@H](O)C[C@]3(C)[C@]2(C(=O)CCl)O1 [Halcinonide] : 0.7117
OCC(S)CS (stereo not shown) : 0.8115
Cc1cccc(C)c1NC(=O)C1CCCCN1C (stereo not shown) [Mepivacaine] : 1.156
CN1CC(O)C2=C/C(=N/NC(N)=O)C(=O)C=C21 (stereo not shown) : 0.9668
